Origin of the recorded values: the supplement of paper PMC11061612

Test system: KCL-22 (Chronic Myelogenous Leukemia);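 also: after 72 h of two-drug dosing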
Test: Bliss excess, mean over the matrix (fraction); higher = more synergy
assay-readout: Bliss excess
Respond numerically, and do not add a unit to the figure.

C[C@@H](c1ccc2nccn2c1)n1nnc2ncc(-c3cnn(C)c3)nc21 [Savolitinib] + CN(CC[C@H](CSC1=CC=CC=C1)NC2=C(C=C(C=C2)S(=O)(=O)NC(=O)C3=CC=C(C=C3)N4CCC(CC4)[C@H](C5=CC=CC=C5C6=CC=C(C=C6)Cl)O)S(=O)(=O)C(F)(F)F)CCO [AZD4320] (first compound max 1 µM, 7x7, partner max 1 µM) :: -0.0201
COc1nnc2ccc(N3CCC(c4ccc(OCCN5CCN(C)C(=O)[C@H]5C)cc4)CC3)nn12 [AZD5153] + CN(CC[C@H](CSC1=CC=CC=C1)NC2=C(C=C(C=C2)S(=O)(=O)NC(=O)C3=CC=C(C=C3)N4CCC(CC4)[C@H](C5=CC=CC=C5C6=CC=C(C=C6)Cl)O)S(=O)(=O)C(F)(F)F)CCO [AZD4320] (first compound max 1 µM, 7x7, partner max 1 µM) :: 0.078

So, COc1nnc2ccc(N3CCC(c4ccc(OCCN5CCN(C)C(=O)[C@H]5C)cc4)CC3)nn12 [AZD5153] + C[C@@H]1COCCN1C2=NC(=NC(=C2)C3(CC3)[S@](=N)(=O)C)C4=C5C=CNC5=NC=C4 [AZD6738] (first compound max 1 µM, 7x7, partner max 10 µM) ? Its Bliss excess was -0.0188

Briefly, Bliss excess measured for CC1(C)CCC(CN2CCN(c3ccc(C(=O)NS(=O)(=O)c4ccc(NCC5CCOCC5)c([N+](=O)[O-])c4)c(Oc4cnc5[nH]ccc5c4)c3)CC2)=C(c2ccc(Cl)cc2)C1 [Venetoclax] + CN(C)CCCOc1ccc(-c2ccc3ncc4c(c3c2)n(C2CCOCC2)c(=O)n4C)cn1 [AZD0156] (first compound max 1 µM, 7x7, partner max 1 µM) : 0.0042

Reported Bliss excess of CCc1c2c(nc3ccc(O)cc13)-c1cc3c(c(=O)n1C2)COC(=O)[C@]3(O)CC [SN-38] + CN(C)CCCOc1ccc(-c2ccc3ncc4c(c3c2)n(C2CCOCC2)c(=O)n4C)cn1 [AZD0156] (first compound max 0.3 µM, 7x7, partner max 1 µM) : 0.0872

Consider NC1(C(=O)N[C@@H](CCO)c2ccc(Cl)cc2)CCN(c2ncnc3[nH]ccc23)CC1 [Capivasertib] + CC(C)n1c(=O)n(C)c2cnc3cc(F)c(-c4ccc(OCCCN5CCCCC5)nc4)cc3c21 [AZD1390] (first compound max 10 µM, 7x7, partner max 0.3 µM) . Its measured Bliss excess is -0.0116
